I'd be grateful if you could share measured melting point for these entries.

What value of melting point has been recorded for this entry: COc1cc2c(=O)n(NS(C)(=O)=O)c(=O)[nH]c2cc1[N+](=O)[O-] [Example 15]
> 280 °C

Repeat with CS(=O)(=O)Nn1c(=O)[nH]c2cc(C(F)(F)F)c(N3CCC(=O)CC3)cc2c1=O [Example 78]
238 to 242 °C

What would you report for CCS(=O)(=O)Nn1c(=O)[nH]c2cc(C(F)(F)F)c(-n3cnnc3)cc2c1=O [Example 70] ?
185 to 195 °C

Now consider CS(=O)(=O)Nn1c(=O)[nH]c2cc(C(F)(F)F)c(N3CCC3)cc2c1=O [Example 79] .
266 to 283 °C

Another molecule to look at: CS(=O)(=O)Nn1c(=O)[nH]c2cc(C(F)(F)F)c(N3CCSCC3)cc2c1=O [Example 74]
245 to 260 °C (dec.)

Follow-up item: CN(C)c1cc2c(=O)n(NS(C)(=O)=O)c(=O)[nH]c2cc1C(F)(F)F [Example 81]
254 to 272 °C

Entry CS(=O)(=O)Nn1c(=O)[nH]c2cc(C(F)(F)F)c(-n3ccnc3)cc2c1=O [Example 73] please
285 to 301 °C (dec.)

Query CS(=O)(=O)Nn1c(=O)[nH]c2cc(C(F)(F)F)c(-n3cnc(C(F)(F)F)c3)cc2c1=O [Example 96] next
144 to 147 °C

Now consider CN(C)C(=O)c1cn(-c2cc3c(=O)n(NS(C)(=O)=O)c(=O)[nH]c3cc2C(F)(F)F)cn1 [Example 90] .
284 to 286 °C

Query CS(=O)(=O)Nn1c(=O)[nH]c2cc(C(F)(F)F)c(-n3cnc(Br)c3)cc2c1=O [Example 95] next
229 to 233 °C

Another molecule: CNC(=O)c1cn(-c2cc3c(=O)n(NS(C)(=O)=O)c(=O)[nH]c3cc2C(F)(F)F)cn1 [Example 91]
292 to 295 °C

Hello, the source for this data is patent US8299085B2, in case you need it.
